test: Acute toxicity (LD50), mice, oral; details: mouse, in vivo; mice oral
Measured Property: LD50

# input compound: Nc1nc2c(ncn2COCCO)c(=O)[nH]1 [ACV, 9-[(2-hydroxyethoxy)methyl]guanine] ; wanted: its LD50
> 10000 mg/kg

###

test: Acute toxicity (LD50), rats, oral; details: rat, in vivo
Measured Property: LD50 (mg/kg)
Give the value, in units of mg/kg, as a plain number.

# input compound: OCCN(CCO)c1nc(N2CCCCC2)c2nc(N(CCO)CCO)nc(N3CCCCC3)c2n1 [Dipyridamole] ; wanted: its LD50
8400
